The entries below are paired with their reported activation.
- Test system: DAF-12 nuclear receptor (Haemonchus contortus)
- assay_method_text: hcDAF-12 driven luciferase reporter activation – cell-based, luminescence, HEK293, lit1-tk-luc reporter, primary screen (AID 652067)
- applied_conditions: HEK293 hcDAF-12 lit1-tk-luc reporter, at 6.8 µM, active compounds read high, 0% DMSO, 100% Δ7-dafachronic acid
The campaign covered roughly 370,000 compounds. About 5,400 (1.5%) were called active. What follows is part of a selection rich in actives, with near analogues and random picks from the rest.
Write the answer as a number in %, unit excluded.

Check out these entries, answers already filled in.
CN(C)CCNC(=O)c1[nH]nc2c1CCc1ccccc1-2 :: 6.06
O=S1(=O)c2ccc(Br)cc2-n2nncc2CN1Cc1cccc(Cl)c1 :: 0.57

Here is another compound to look at.
// activation value for COc1ccc(C2CC(c3cccs3)=Nc3ccccc3S2)cc1OC (stereo unspecified) : 7.77

====

- System: DAF-12 nuclear receptor (Haemonchus contortus)
- assay_method_text: hcDAF-12 driven luciferase reporter activation – cell-based, luminescence, HEK293, lit1-tk-luc reporter, primary screen (AID 652067)
- applied_conditions: HEK293 hcDAF-12 lit1-tk-luc reporter, at 6.8 µM, active compounds read high, 0% DMSO, 100% Δ7-dafachronic acid
Hit rate of the full screen: of about 370,000 compounds, about 5,400 (1.5%) were called active. For the sample, actives were picked, then their nearest neighbours and some compounds at random.
Reported activation is given for each of the following compounds.
Give your result in % as a bare value.

Examples with their reported activation follow.
CC(=O)c1cccc(NC(=O)COc2ccc(S(=O)(=O)N3CCOCC3)cc2)c1 :: -0.45
Cc1[nH]nc2c1C(c1ccc(Br)cc1)NC2=O (centres undefined) :: 1.05
CC(C)(C)NC(=O)C(c1ccncc1)N(C(=O)CNC(=O)c1ccco1)c1ccc2c(c1)OCO2 (centres undefined) :: 6.8

Attention now shifts to the item below.
activation recorded for this compound, COCCCNC(=O)C[C@H]1C[C@@]2(C(=O)OC)C(=C[C@H](C(C)(C)C)O[C@@H]2C)N(Cc2ccc(Cl)cc2Cl)C1=O , is 0.08

====

Items are presented alongside their recorded activation.
- Test system: DAF-12 nuclear receptor (Haemonchus contortus)
- assay_method_text: hcDAF-12 driven luciferase reporter activation – cell-based, luminescence, HEK293, lit1-tk-luc reporter, primary screen (AID 652067)
- applied_conditions: HEK293 hcDAF-12 lit1-tk-luc reporter, at 6.8 µM, active compounds read high, 0% DMSO, 100% Δ7-dafachronic acid
Hit rate of the full screen: of about 370,000 compounds, about 5,400 (1.5%) were called active. Many of the other results were omitted from the sample, so actives are more common in it than they were.
The reply should be a number in %, with the unit left off.

COc1ccc(C(=O)COC(=O)c2ccc3ccccc3n2)cc1 :: 0.42
COc1ccc(NCc2nnc(SCc3ccccc3)n2-c2ccc(OC)cc2)cc1 :: -1.98
COc1ccc(C2=NOC(COC(=O)c3ccc4ccccc4n3)C2)cc1 (stereo not given) :: 7.15
COc1ccc(Cn2cc(COC(=O)N(C)Cc3ccccc3)nn2)cc1 :: -0.59
O=C(OCC(=O)N1CCOCC1)c1ccc2ccccc2c1 :: 0.31
COc1cccc(CSc2nnc(-c3cccnc3)n2Cc2ccccc2)c1 :: -1.85

Reported activation of CCn1c(=O)n2n(c1=O)[C@@]1(C=C3CCCC[C@H]32)N=C(NC(=O)c2ccccc2)N(Cc2ccccc2)[C@H]1Cc1ccccc1 : -1.71

Lab note: measured activation of CCC(C)[C@@H](C(=O)OC)N(CCc1cn(Cc2ccccc2)nn1)S(=O)(=O)c1ccccc1Br (stereo not given in full) was -2.4

// activation lookup, molecule = NC(=O)c1ccccc1N=Cc1ccc2ccccc2c1 , result: 10.7

For reference, reported activation for CCCCCN1CCCCC(NC(=O)C(C)CCC)C1=O (stereo not given) stands at 0.16

====

- Test system: DAF-12 nuclear receptor (Haemonchus contortus)
- assay_method_text: hcDAF-12 driven luciferase reporter activation – cell-based, luminescence, HEK293, lit1-tk-luc reporter, primary screen (AID 652067)
- applied_conditions: HEK293 hcDAF-12 lit1-tk-luc reporter, at 6.8 µM, active compounds read high, 0% DMSO, 100% Δ7-dafachronic acid
Among all 370,000 compounds or so, about 5,400 (1.5%) were called active. The sample holds actives, similar compounds and a random draw of the others, so the mix is not that of the screen.
endpoint: activation (%)
Write the answer as a number in %, unit excluded.

O=C(Nc1ccn(Cc2ccccc2)n1)c1n[nH]c([N+](=O)[O-])c1Cl :: 5.98
Cc1c(Br)c([N+](=O)[O-])nn1CC(=O)N1CCN(Cc2ccccc2)CC1 :: -0.25
Cc1cc(C)nc(Nc2n[nH]c(-c3ccccc3N)n2)n1 :: 8.9
NC(=O)c1ncn([C@@H]2O[C@H](C(=O)O)[C@@H](O)[C@H]2O)n1 :: -0.43

Looking up O=C(Nc1ccn(Cc2ccccc2)n1)c1cccc(F)c1 , I see its activation listed as 8.2

====

- Tested on: DAF-12 nuclear receptor (Haemonchus contortus)
- assay_method_text: hcDAF-12 driven luciferase reporter activation – cell-based, luminescence, HEK293, lit1-tk-luc reporter, primary screen (AID 652067)
- applied_conditions: HEK293 hcDAF-12 lit1-tk-luc reporter, at 6.8 µM, 0% DMSO, 100% Δ7-dafachronic acid
Hit rate of the full screen: of about 370,000 compounds, about 5,400 (1.5%) were called active.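 Rule for the calls: active = activation above the mean of all tested compounds plus 3 SD (cut at about 5.5% in these data); inactive = the rest.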 The entries come from a sample that favours actives as a whole.
Response enum: active, inactive

Please review the entries below; each comes with its answer.
O=S1(=O)c2c(cccc2N2CCSCC2)Oc2ccccc2CN1Cc1cn(Cc2ccc(F)cc2)nn1 :: inactive
COc1ccc(N2CCN(CCNS(=O)(=O)c3ccc(Cl)s3)CC2)cc1 :: inactive
COc1ccc(-n2c(SCC(=O)Nc3ccccc3-c3ccccc3)nnc2-c2cccnc2)cc1 :: inactive
COc1ccc(-n2nnnc2SCC(=O)NCc2cccs2)cc1 :: inactive
O=C(CSc1nc2ccccc2n1Cc1ccccc1)NNC(=S)Nc1ccccc1 :: inactive

// query Short answer needed: outcome of this test for CCCCNC(=O)OC(C)CNC(=O)OC (centres undefined) ?
// result inactive

====

- Tested on: DAF-12 nuclear receptor (Haemonchus contortus)
- assay_method_text: hcDAF-12 driven luciferase reporter activation – cell-based, luminescence, HEK293, lit1-tk-luc reporter, primary screen (AID 652067)
- applied_conditions: HEK293 hcDAF-12 lit1-tk-luc reporter, at 6.8 µM, active compounds read high, 0% DMSO, 100% Δ7-dafachronic acid
In all, about 370,000 compounds went through this assay and about 5,400 (1.5%) were called active. What follows is part of a selection rich in actives, with near analogues and random picks from the rest.
Reported values of activation for individual entries
Report as a plain number; the unit % is understood.

Record excerpt, results attached:
O=S(=O)(c1cccs1)N1CCCc2nc(-c3ccc(Br)cc3)ccc21 :: -0.17
COC(=O)[C@]12C[C@H](CC(=O)N3CCN(C(=O)C4CC4)CC3)C(=O)N(Cc3ccc4c(c3)OCO4)C1=C[C@H](C(C)(C)C)O[C@@H]2C :: -0.45
C=CCN1C(=O)[C@H](CC(=O)NCCCN2CCCC2=O)[C@@]2(C(=O)OCC)CCCC=C12 :: -0.18
C=CCNc1nc(Nc2ccc(Cl)cc2)nc(OC)n1 :: -0.18
Clc1ccc(Nc2ccc3ccccc3n2)cc1 :: 17.1
COc1ccccc1N(CC(=O)Nc1ccc(C)cc1Cl)S(=O)(=O)c1cccs1 :: -2.56

Entry under test: O=C(Cn1cnc([N+](=O)[O-])n1)NCCc1ccccc1 . Its activation was 1.32

The compound listed as O=C(CSc1nc2ccccc2nc1N1CCCCC1)N1CCN(S(=O)(=O)c2cccc([N+](=O)[O-])c2)CC1 shows activation equal to -0.06

Given item O=C(CN1CCCCCC1)Nc1ccc(Cl)cc1F , the value recorded as its activation is -0.52

For reference, reported activation for CN(CC(=O)NC(=O)Nc1ccccc1F)Cc1ccccc1 stands at -0.6

====

- Tested on: DAF-12 nuclear receptor (Haemonchus contortus)
- assay_method_text: hcDAF-12 driven luciferase reporter activation – cell-based, luminescence, HEK293, lit1-tk-luc reporter, primary screen (AID 652067)
- applied_conditions: HEK293 hcDAF-12 lit1-tk-luc reporter, at 6.8 µM, active compounds read high, 0% DMSO, 100% Δ7-dafachronic acid
The campaign covered roughly 370,000 compounds. About 5,400 (1.5%) were called active. The sample holds actives, similar compounds and a random draw of the others, so the mix is not that of the screen.
endpoint: activation (%)
The reply should contain only the number, in %.

O=C(c1cc(C2CCCCN2S(=O)(=O)c2ccccc2)on1)N1CCOCC1 (stereo unspecified) :: -0.3

GET /value?item= O=C(c1cc2ccccc2o1)N1CCN(Cc2ccccc2)CC1 &field=activation returns -2.1

Reported activation ( O=C(NCCCn1ccnc1)c1cc(Br)c(Br)s1 ) = -2.07

Value of activation reported for the compound C[C@@H]1ON(C)[C@H]2C[C@H]3c4cc(N5CCOCC5)ccc4CCN3C[C@@H]12 is -1.8

Entry CCc1c(-c2ccccc2OC)ncn1CCc1ccccc1OC , activation reported as -2.85

Notebook: COc1ccccc1S(=O)(=O)c1c(C)cc(C)[nH]c1=O , activation read as 0.35

Measured activation, O=S(=O)(c1ccc(OCC(O)CN2CCN(c3ccccc3Cl)CC2)cc1)N1CCOCC1 (stereo unspecified) : -1.63

The compound listed as Cc1cc(C)c(/C=C2\C(=O)Nc3ccccc32)[nH]1 shows activation equal to 6.61

For reference, reported activation for COc1ccnc(C(=O)N2CCC(Oc3cccnc3)CC2)c1 stands at -0.13

Form: compound = COc1cc2ccccc2cc1C(=O)N(CCN(C)C)c1nc2c(F)cccc2s1 ; activation = 6.37

Form: compound = OC(COc1ccc2ccccc2c1)Cn1cncn1 (stereo unspecified) ; activation = -0.78
